Data credit: patent US9877957B2

# test_system: hDGAT2 (Homo sapiens (Human))
# Sequence (Q96PD7 whole entry): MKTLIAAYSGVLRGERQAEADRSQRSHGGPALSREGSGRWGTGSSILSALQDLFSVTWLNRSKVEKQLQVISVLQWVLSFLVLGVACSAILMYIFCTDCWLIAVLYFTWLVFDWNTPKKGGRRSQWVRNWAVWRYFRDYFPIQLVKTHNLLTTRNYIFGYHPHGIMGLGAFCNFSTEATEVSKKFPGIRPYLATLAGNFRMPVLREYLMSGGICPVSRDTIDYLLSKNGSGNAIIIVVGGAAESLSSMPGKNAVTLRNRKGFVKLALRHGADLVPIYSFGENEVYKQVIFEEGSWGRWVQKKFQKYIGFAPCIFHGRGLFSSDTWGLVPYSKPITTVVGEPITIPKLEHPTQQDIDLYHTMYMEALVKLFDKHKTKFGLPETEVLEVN
# assay_info: DGAT2 Enzymatic Activity Assay (triolein formation, LC/MS/MS)
# Type: biochemical
# experimental_conditions: Sf-9 membrane prep expressing hDGAT2; 25 μM diolein, 10 μM oleoyl-CoA; room temperature; read-out: IC50 values for inhibition of DGAT2
Known pIC50 of a selection of compounds
The scale used: pIC50 is minus the common logarithm of the concentration in molar units.

Previously resolved entries follow.
{"compound": "CC(C)(C)NC(=O)N1CCc2c(-c3cccc(C(F)(F)F)c3)ccc(C(=O)NCc3cccc4ncccc34)c2C1", "pIC50": 6.90}
{"compound": "Cn1ccnc1CNC(=O)c1ccc(-c2cccc(C(F)(F)F)c2)c2c1CN(C(=O)NC(C)(C)C)CC2", "pIC50": 6.32}

Please report pIC50 for the following compound: CC(C)(C)NC(=O)N1CCc2c(-c3cccc(C(F)(F)F)c3)ccc(C(=O)NCCc3cscn3)c2C1
6.48

Please report pIC50 for the following compound: CC(C)(C)NC(=O)N1CCc2c(-c3cccc(OC(F)(F)F)c3)ccc(C(=O)NCc3cn4cccnc4n3)c2C1
5.67

Please report pIC50 for the following compound: COC(=O)c1cccc(-c2ccc(CNC(=O)c3cc(C(C)(C)C)nn3C)c3c2CCN(C(=O)NC(C)(C)C)C3)c1
7.77

Please report pIC50 for the following compound: CC(C)(C)NC(=O)N1CCc2c(-c3cccc(C(F)(F)F)c3)ccc(C(=O)NCc3scnc3-c3ccccc3)c2C1
6.05

Please report pIC50 for the following compound: Cn1c(CCNC(=O)c2ccc(-c3cccc(C(F)(F)F)c3)c3c2CN(C(=O)NC(C)(C)C)CC3)nc2ccccc21
6.69

Please report pIC50 for the following compound: CC(C)(C)NC(=O)N1CCc2c(-c3cccc(C(F)(F)F)c3)ccc(C(=O)NC[C@H]3C[C@@H]3c3ccccc3)c2C1 (relative stereo)
6.28

Please report pIC50 for the following compound: CC(C)(C)NC(=O)N1CCc2c(-c3cccc(C(F)(F)F)c3)ccc(C(=O)NCCn3nncc3-c3ccccc3)c2C1
6.13

Please report pIC50 for the following compound: CC(C)(C)NC(=O)N1CCc2c(-c3cccc(C(F)(F)F)c3)ccc(C(=O)NCCc3nc4ccc(F)cc4[nH]3)c2C1
7.48

Please report pIC50 for the following compound: CC(C)(C)NC(=O)N1CCc2c(-c3cccc(OC(F)(F)F)c3)ccc(C(=O)NCc3nnc4n3CCC4)c2C1
5.60

Please report pIC50 for the following compound: CC(CNC(=O)c1ccc(-c2cccc(C(F)(F)F)c2)c2c1CN(C(=O)NC(C)(C)C)CC2)n1cccn1 (centres unmarked)
5.92

Please report pIC50 for the following compound: CC(C)(C)NC(=O)N1CCc2c(-c3cccc(C(F)(F)F)c3)ccc(C(=O)NCc3cccc4cnccc34)c2C1
7.16

Please report pIC50 for the following compound: CC(C)(C)NC(=O)N1CCc2c(-c3cccc(C(F)(F)F)c3)ccc(C(=O)NCc3cncc4ccccc34)c2C1
7.17

---

Known IC50 of a selection of compounds
# test_system: hDGAT2 (Homo sapiens (Human))
Phrase the answer as number then unit, nothing more needed.

Previously resolved entries follow.
{"compound": "CC(C)(C)NC(=O)N1CCc2c(-c3cccc(C(F)(F)F)c3)ccc(C(=O)NCCc3cnc4ccccn34)c2C1", "IC50": "3720 nM"}
{"compound": "CC(C)(C)NC(=O)N1CCc2c(-c3cccc(C(F)(F)F)c3)ccc(C(=O)N[C@@H](CO)c3ccc(C(F)(F)F)nc3)c2C1 (racemic)", "IC50": "214 nM"}
{"compound": "CC(C)(C)NC(=O)N1CCc2c(-c3cccc(C(F)(F)F)c3)ccc(C(=O)NCCc3cn4cccnc4n3)c2C1", "IC50": "1570 nM"}

Okay, next one:
For hDGAT2 (Homo sapiens (Human)), give the measured IC50 of the entry CC(C)(C)NC(=O)N1CCc2c(-c3cccc(C(F)(F)F)c3)ccc(C(=O)NCc3cnn4ccccc34)c2C1
351 nM
